AC50 values, listed per item
assay: control 3'UTR Renilla luciferase suppression, dose response, counter-screen for Shn3 inhibitor project, cell-based, Clone20-Shn3RL, cherry-picked (AID 624133); type: functional
Activity calls are given as the source filed them.

Value of AC50 reported for the molecule `O=C(c1ccc2c(=O)n(-c3ccccc3)c(=S)[nH]c2c1)N1CCCCC1` is 3.14 µM (active)

Value of AC50 reported for the molecule `Fc1ccc(N=C(S)N2CCCN(c3ccc(C(F)(F)F)cn3)CC2)c(F)c1` is 27 µM (active)

Value of AC50 reported for the molecule `NC(=O)c1ccc(N2CCN(S(=O)(=O)c3cccs3)CC2)c([N+](=O)[O-])c1` is 6.21 µM (active)

Value of AC50 reported for the molecule C=C1C(=O)C23C(O)C1CCC2C12CCCC(C)(COC(C)=O)C1C(O)C3(O)OC2 (centres undefined) is 3.84 µM (active)

====

molecular target: UniProt P63165; assay: inhibitors of SUMO1 partner interactions, dose response, biochemical, FRET (AID 624383); format: functional; settings: read-out: IC50_Mean
Sequence (P63165 whole entry): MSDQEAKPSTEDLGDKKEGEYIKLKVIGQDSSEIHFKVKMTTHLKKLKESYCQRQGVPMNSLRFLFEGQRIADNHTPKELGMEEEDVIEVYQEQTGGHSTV
The source made the active and inactive calls.
Measured Endpoint: IC50

Value of IC50 reported for the compound `Nc1nc(-c2cc(O)ccc2[N+](=O)[O-])cc(-c2ccccc2)c1[N+](=O)[O-]` is 9.51 µM (active)

Value of IC50 reported for the compound CC(=O)c1ccc2c(c1)C1C(Cl)C(Sc3ccccc3[N+](=O)[O-])CC1C(C(=O)O)N2 (centres undefined) is 13.2 µM (active)

Value of IC50 reported for the compound O=C(O)c1cccc(NC(=S)NC(NC(=O)c2cccc([N+](=O)[O-])c2)C(Cl)(Cl)Cl)c1 (centres undefined) is 10.8 µM (active)

Value of IC50 reported for the compound `CC(=O)c1ccc(NC(=O)c2cccc(N3C(=O)c4ccccc4C3=O)c2)cc1` is 3.13 µM (active)

====

AC50 values, listed per item
molecular target: Cytochrome P450 2C19 (Homo sapiens); test: Cytochrome panel assay with activity outcomes. Panel member name: p450-cyp2c19 Compounds with AC50 equal or less than 10 uM are considered active; format: functional; conditions: read-out: AC50
Sequence (P33261 whole entry): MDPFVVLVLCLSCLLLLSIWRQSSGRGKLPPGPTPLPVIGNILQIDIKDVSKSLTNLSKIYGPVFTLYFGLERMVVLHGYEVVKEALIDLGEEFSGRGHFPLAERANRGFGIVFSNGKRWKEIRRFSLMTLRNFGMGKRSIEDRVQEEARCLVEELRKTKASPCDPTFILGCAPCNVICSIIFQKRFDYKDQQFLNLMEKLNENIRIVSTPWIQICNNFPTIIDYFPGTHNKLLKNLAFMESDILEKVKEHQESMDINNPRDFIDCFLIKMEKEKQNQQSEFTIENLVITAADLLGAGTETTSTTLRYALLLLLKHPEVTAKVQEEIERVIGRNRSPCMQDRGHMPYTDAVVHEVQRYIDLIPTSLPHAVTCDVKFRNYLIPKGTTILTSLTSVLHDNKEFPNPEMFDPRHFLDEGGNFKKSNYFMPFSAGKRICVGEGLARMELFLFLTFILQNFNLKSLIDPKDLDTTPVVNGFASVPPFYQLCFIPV

See these solved cases before continuing.
COC(=O)[C@@]1(Cc2ccccc2)[C@H]2c3cc(C(=O)N(C)C)n(Cc4ccc(S(C)(=O)=O)cc4)c3C[C@H]2CN1C(=O)c1ccccc1
39.8 µM (inconclusive)
ClCCNc1nc2cc(Cl)ccc2[nH]1
15.8 µM (inconclusive)

Turning to the following compound.
Value of AC50 reported for the compound OC(c1ccccc1)(c1ccccc1)C1CCCN1 (stereo not drawn) is 1.41 µM (inconclusive)

====

Calls of active or inactive are those of the source.
Observed IC50, system Estrogen receptor beta (Homo sapiens, UniProt Q92731).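 Note: recombinant ER-beta bound to coactivator SRC1 peptide in presence of estradiol agonist; inhibitors block coactivator peptide binding and lower the FRET signal.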

See these solved cases before continuing.
O=C(Nc1cnn(C23CC4CC(CC(C4)C2)C3)c1)c1cnn2c(C(F)(F)F)cc(-c3ccco3)nc12
> 50 µM (not active)
O=C1OC(Nc2ccc3c(c2)OCO3)c2ccccc21 (stereo not given)
> 50 µM (not active)

Value of IC50 reported for the molecule `COCC(=O)Nc1nnc(Cc2ccc(OC)cc2)s1` is > 50 µM (not active)

Value of IC50 reported for the molecule O=C1C2C3C=CC(C3)C2C(=O)N1c1cccc2cccnc12 (stereo not given) is 21.4 µM (active)

Value of IC50 reported for the molecule `Nc1c(Cl)cc(Cl)cc1C(=O)OCC(=O)NC1CC1` is 26.5 µM (active)
